# Test system: OVCAR-4 ovarian
# assay-info: NCI tumour cell line growth inhibition, 48 h
metric-name: TGI

[[record]]
molecule = "COc1nc(N)c(C#N)c(C#N)c1C#N"
study_target = "OVCAR-4 ovarian"
reported_result = "> 10 µM"

[[record]]
molecule = "CCOc1nc(-c2ccccc2)cc2c(O)c(C(=O)N/N=C/c3ccc(O)cc3O)[nH]c(=O)c12"
study_target = "OVCAR-4 ovarian"
reported_result = "> 40.8 µM"

[[record]]
molecule = "COc1ccc(C2[C@H]3C(=O)N(c4ccc(Cc5ccc(N6C(=O)[C@@H]7ON(c8ccccc8)C(c8ccc(OC)cc8)[C@@H]7C6=O)cc5)cc4)C(=O)[C@H]3ON2c2ccccc2)cc1 (stereo partly drawn)"
study_target = "OVCAR-4 ovarian"
reported_result = "> 100 µM"

[[record]]
molecule = "CCCC1C(CC)C(NC)C(C#N)(C#N)C1(C#N)C#N (stereo not drawn)"
study_target = "OVCAR-4 ovarian"
reported_result = "> 100 µM"

[[record]]
molecule = "CC(=O)[CH-]C(C)=O.CC(=O)[CH-]C(C)=O.CC(=O)[CH-]C(C)=O.[In+3]"
study_target = "OVCAR-4 ovarian"
reported_result = "> 100 µM"

[[record]]
molecule = "O=[N+]([O-])c1ccc(C2=NN(c3ccccc3)C[N+](c3ccc(Br)cc3)=N2)cc1"
study_target = "OVCAR-4 ovarian"
reported_result = "> 100 µM"

[[record]]
molecule = "COc1ccc(NC(=O)/C(Cc2nc3ccccc3[nH]c2=O)=N\\O)c(OC)c1"
study_target = "OVCAR-4 ovarian"
reported_result = "> 100 µM"

[[record]]
molecule = "O=S(=O)(O)SC/C=C\\CSS(=O)(=O)O"
study_target = "OVCAR-4 ovarian"
reported_result = "> 100 µM"


---

# System: SR leukemia
# assay-info: NCI tumour cell line growth inhibition, 48 h
metric-name: TGI (µM)

[[record]]
molecule = "Nc1ccc(C(c2ccccc2)(c2ccccc2)c2ccccc2)cc1"
readout_qualifier = ">"
reported_result = 100

[[record]]
molecule = "CC(C)=CCc1c(O)c(CC=C(C)C)c2oc(-c3ccc(O)cc3O)c(CC=C(C)C)c(=O)c2c1O"
readout_qualifier = "="
reported_result = 9.88

[[record]]
molecule = "CC1CC(c2ccc([N+](=O)[O-])cc2)=Nc2ccccc2S1 (configuration not stated)"
readout_qualifier = "="
reported_result = 24.9

[[record]]
molecule = "CN(C)CCCNC(=O)N/N=C/c1ccc([N+](=O)[O-])cc1"
readout_qualifier = ">"
reported_result = 100

[[record]]
molecule = "CCN1CCN(c2cc(C)nc(N(CCNc3ccnc4cc(Cl)ccc34)Cc3ccc4c(c3)OCO4)n2)CC1"
readout_qualifier = "="
reported_result = 0.544

[[record]]
molecule = "COc1ccc2[nH]c(-c3ccccc3)c(/C=C(\\C#N)S(=O)(=O)c3ccccc3)c2c1"
readout_qualifier = "="
reported_result = 15.7

[[record]]
molecule = "C=C1OC(=O)[C@]2([C@@H](/C=C/C)C=CC(=O)[C@H]2O)[C@@H]1O"
readout_qualifier = ">"
reported_result = 100


---

TGI overview
# Test system: NCI-H226 lung
# assay-info: NCI tumour cell line growth inhibition, 48 h
metric-name: TGI

[[record]]
compound = "N#C/C(=C\\c1ccccc1)c1nc(-c2cc3ccccc3oc2=O)cs1"
metric_name = "TGI"
reported_result = "> 100 µM"

[[record]]
compound = "C#C[C@]1(O)CC[C@H]2[C@@H]3CCC4=CC(=NCCOC(=O)c5cccc6c(=O)c7ccccc7[nH]c56)CC[C@@H]4[C@H]3CC[C@@]21C"
metric_name = "TGI"
reported_result = "> 100 µM"

[[record]]
compound = "N=C(N)N=Nc1ccc(NN=C(N)N)c2c1ncc1c2nc2sccn21"
metric_name = "TGI"
reported_result = "> 100 µM"

[[record]]
compound = "O=C(O)CNC(=O)C(CS)Cc1ccccc1 (configuration not stated)"
metric_name = "TGI"
reported_result = "> 25 µM"

[[record]]
compound = "Nc1nc(/C=C\\c2ccc([N+](=O)[O-])cc2)nc(N2CCN(c3ccccc3)CC2)n1"
metric_name = "TGI"
reported_result = "> 100 µM"

[[record]]
compound = "CC12CCC(C(Br)(Br)C1=O)C2(C)C (configuration not stated)"
metric_name = "TGI"
reported_result = "8.64 µM"

[[record]]
compound = "CCCS(=O)(=O)Nc1ccc(F)c(C(=O)c2c[nH]c3ncc(Cl)cc23)c1F"
metric_name = "TGI"
reported_result = "78.1 µM"


---

# Test system: LOX IMVI melanoma
# assay-info: NCI tumour cell line growth inhibition, 48 h
TGI overview
metric-name: TGI

[[record]]
compound = "O=C(Nc1ccc(CN2CCOCC2)cc1)c1ccc(-c2cc(Cl)ccc2Cl)o1"
metric_name = "TGI"
reported_result = "13 µM"

[[record]]
compound = "O=C1NC2C(=O)N(Cc3ccccc3)C(=O)C2N1 (centres undefined)"
metric_name = "TGI"
reported_result = "> 100 µM"

[[record]]
compound = "COc1ccccc1/C=C1\\Sc2scc(-c3ccc(O)c(O)c3)[n+]2C1=O"
metric_name = "TGI"
reported_result = "33.5 µM"

[[record]]
compound = "CC(C)c1cc(Cl)nc(Cl)n1"
metric_name = "TGI"
reported_result = "> 100 µM"

[[record]]
compound = "COc1cc(OC)cc(-n2c(N)c(C#N)c3ccc([N+](=O)[O-])cc3c2=O)c1"
metric_name = "TGI"
reported_result = "> 100 µM"

[[record]]
compound = "C=C1OC(=O)[C@]2([C@@H](/C=C/C)C=CC(=O)[C@H]2O)[C@@H]1O"
metric_name = "TGI"
reported_result = "> 100 µM"

[[record]]
compound = "CC(=O)O[C@H]1CC2C(C3CCC(C(C)CCC(=O)O)[C@]31C)[C@H](OC(C)=O)C[C@@H]1CC3(CC[C@]21C)OOC1(CC[C@]2(C)C4C[C@H](OC(C)=O)[C@]5(C)C(C(C)CCC(=O)O)CCC5C4[C@H](OC(C)=O)C[C@@H]2C1)OO3 (some centres undefined)"
metric_name = "TGI"
reported_result = "3.11 µM"

[[record]]
compound = "COc1cc(C[C@@H](C)N)cc(OC)c1"
metric_name = "TGI"
reported_result = "> 100 µM"

[[record]]
compound = "COc1cc(NCCCCCN=C(N)N)c2ncccc2c1"
metric_name = "TGI"
reported_result = "> 56.1 µM"

[[record]]
compound = "CN1C2CCC1CC(CC(=O)NC(c1ccc(F)cc1)c1ccc(F)cc1)C2 (centres undefined)"
metric_name = "TGI"
reported_result = "> 100 µM"

[[record]]
compound = "C1CSCCCSCCCSCCCSCCCSC1"
metric_name = "TGI"
reported_result = "61.3 µM"

[[record]]
compound = "CCC(C)CN1C(=O)NC(Cc2ccccc2)C1=O (centres undefined)"
metric_name = "TGI"
reported_result = "> 100 µM"

[[record]]
compound = "O=C(CC1=Nc2nnc(CCCCCCCc3nnc4n3C(=O)C(CC(=O)c3ccccc3)=N4)n2C1=O)c1ccccc1"
metric_name = "TGI"
reported_result = "> 100 µM"

[[record]]
compound = "COc1cc2c(cc1O)NC(=S)[C@@H]1CCCN1C2=O"
metric_name = "TGI"
reported_result = "> 100 µM"

[[record]]
compound = "Nc1nc(-c2ccccc2)c(Cl)c(-c2cc(Cl)ccc2O)n1"
metric_name = "TGI"
reported_result = "> 59.2 µM"

[[record]]
compound = "CC1=NCCc2cc3[nH]c4ccccc4c3cc21"
metric_name = "TGI"
reported_result = "37.7 µM"

[[record]]
compound = "C=C1CCC2C(C)(CO)C(O)CCC2(C)C1CC(O)/C(=C/CO)C(=O)O (centres undefined)"
metric_name = "TGI"
reported_result = "> 100 µM"

[[record]]
compound = "[Cl-].[Cl-].[Cl-].[O-]c1cccc2cccnc12.[O-]c1cccc2cccnc12.[O]=[Mo]"
metric_name = "TGI"
reported_result = "22 µM"

[[record]]
compound = "O=C1Nc2cc(Cl)ccc2/C1=C\\c1c(-c2ccc(F)cc2)nc2ccccn12"
metric_name = "TGI"
reported_result = "2.65 µM"

[[record]]
compound = "COc1ccc(C2[C@H]3C(=O)N(c4ccc(Cc5ccc(N6C(=O)[C@@H]7ON(c8ccccc8)C(c8ccc(OC)cc8)[C@@H]7C6=O)cc5)cc4)C(=O)[C@H]3ON2c2ccccc2)cc1 (some centres undefined)"
metric_name = "TGI"
reported_result = "> 100 µM"

[[record]]
compound = "Cc1nn(C2OC(CO)C(O)C(F)C2O)c(=O)[nH]c1=O (centres undefined)"
metric_name = "TGI"
reported_result = "> 100 µM"

[[record]]
compound = "CC12CCC(C(Br)(Br)C1=O)C2(C)C (centres undefined)"
metric_name = "TGI"
reported_result = "11.3 µM"

[[record]]
compound = "COc1cc(/C=C2\\C(=O)N(c3cc(Cl)ccc3Cl)C(c3ccccc3)S2(=O)=O)cc(OC)c1OC (centres undefined)"
metric_name = "TGI"
reported_result = "> 100 µM"

[[record]]
compound = "CCN(CC)CCOc1ccc(N2C(=O)c3cccc4cc([N+](=O)[O-])cc(c34)C2=O)cc1"
metric_name = "TGI"
reported_result = "20.4 µM"

